# System: normal endometrial stromal cells (MAD11)
# method.notes: MTT cell viability assay, MAD11 cells
# Type: cell-based, human
# measurement.context: Homo sapiens, MAD11, 48 h, MAD11 non-cancerous cells, n = 3 biological replicates, read-out: Mean IC50 (μM) MAD11 ± SD
Readings of IC50 for the listed compounds
quantity.name: IC50

line.notation: C[N+]1(CCNC2=C(Cl)C(=O)c3ccccc3C2=O)CCCCC1.[I-]
quantity.name: IC50
test.result: > 100 µM
//
line.notation: C[N+]1(CCCNC2=C(Cl)C(=O)c3ccccc3C2=O)CCOCC1
quantity.name: IC50
test.result: > 100 µM
//
line.notation: Cc1n(C)c2ccccc2[n+]1C
quantity.name: IC50
test.result: > 100 µM

* * *

# Test system: normal endometrial stromal cells (MAD11)
# method.notes: MTT cell viability assay, MAD11 cells
# Type: cell-based, human
# measurement.context: Homo sapiens, MAD11, 48 h, MAD11 non-cancerous cells, n = 3 biological replicates, read-out: Mean IC50 (μM) MAD11 ± SD
Readings of log10 IC50 for the listed compounds
quantity.name: log10 IC50 (log10 of the value in µM)

compound: Cc1ccc2c(c1)C(=O)c1c([n+](C)c(C)n1C)C2=O
quantity.name: log10 IC50
test.result: -1.00

compound: COc1ccc2c(c1)C(=O)c1c(n(C)c(C)[n+]1C)C2=O
quantity.name: log10 IC50
test.result: -0.71

compound: C[N+]1(CCn2cc(Cn3c(C(F)(F)F)nc4c3C(=O)c3ccccc3C4=O)nn2)CCOCC1.[I-] [Compound 17a]
quantity.name: log10 IC50
test.result: 2.05

compound: Cc1n(C)c2cc3ccccc3cc2[n+]1C.[I-]
quantity.name: log10 IC50
test.result: 1.81

compound: O=C1C(Cl)=C(NCCN2CCOCC2)C(=O)c2ccccc21 [BH10, reference compound]
quantity.name: log10 IC50
test.result: 1.45

compound: Cc1nc2c(n1CCC[N+]1(C)CCCCC1)C(=O)c1ccccc1C2=O.[I-]
quantity.name: log10 IC50
test.result: 1.61

compound: Cc1n(C)c2c([n+]1C)C(=O)c1c(cccc1[N+](=O)[O-])C2=O.[Br-]
quantity.name: log10 IC50
test.result: -0.02

compound: Cc1n(C)c2c([n+]1C)C(=O)c1ccncc1C2=O.[Br-]
quantity.name: log10 IC50
test.result: 0.68

compound: Cc1n(C)c2c([n+]1C)C(=O)c1cc([N+](=O)[O-])ccc1C2=O.[Br-]
quantity.name: log10 IC50
test.result: -1.16

* * *

# Tested on: human endometrial cancer cells (HEC1A)
# method.notes: MTT cell viability assay, HEC1A cells
# Type: cell-based
# measurement.context: Homo sapiens, HEC-1-A, 48 h, HEC1A cells, MTT, 48 h, n = 3 biological replicates; read-out: Mean IC50 (μM) HEC1A ± SD
Readings of IC50 for the listed compounds

line.notation: C[N+]1(CCCNC2=C(Cl)C(=O)c3ccccc3C2=O)CCOCC1
tgt: human endometrial cancer cells (HEC1A)
prefix.operator: >
IC50 (µM): 100

line.notation: Cc1n(C)c2c([n+]1C)C(=O)c1ccncc1C2=O.[Br-]
tgt: human endometrial cancer cells (HEC1A)
prefix.operator: =
IC50 (µM): 0.472

line.notation: C[N+](C)(C)CCCNC1=C(Cl)C(=O)c2ccccc2C1=O
tgt: human endometrial cancer cells (HEC1A)
prefix.operator: >
IC50 (µM): 100

line.notation: Cc1ccc2c(c1)C(=O)c1c([n+](C)c(C)n1C)C2=O
tgt: human endometrial cancer cells (HEC1A)
prefix.operator: =
IC50 (µM): 0.0149

line.notation: C[N+]1(CCNC2=CC(=O)c3ccccc3C2=O)CCOCC1.[I-]
tgt: human endometrial cancer cells (HEC1A)
prefix.operator: =
IC50 (µM): 21.1

line.notation: C[N+]1(CCNC2=C(Br)C(=O)c3ccccc3C2=O)CCOCC1.[I-]
tgt: human endometrial cancer cells (HEC1A)
prefix.operator: =
IC50 (µM): 23.8

line.notation: C[N+]1(CCNC2=C(Cl)C(=O)c3ccccc3C2=O)CCCCC1.[I-]
tgt: human endometrial cancer cells (HEC1A)
prefix.operator: =
IC50 (µM): 58.8

line.notation: C[N+]1(CCCNC2=CC(=O)c3ccccc3C2=O)CCCCC1
tgt: human endometrial cancer cells (HEC1A)
prefix.operator: >
IC50 (µM): 100

line.notation: Cc1n(C)c2ccccc2[n+]1C
tgt: human endometrial cancer cells (HEC1A)
prefix.operator: >
IC50 (µM): 100

line.notation: Cn1c[n+](C)c2ccccc21
tgt: human endometrial cancer cells (HEC1A)
prefix.operator: >
IC50 (µM): 100

Origin of values: paper PMC12073298
